Where these numbers come from: patent US7939672B2

STUDY_SYSTEM: α1G T-type calcium ion channels (Homo sapiens)
Construct: host or cells: HEK293
Sequence (O43497 whole entry): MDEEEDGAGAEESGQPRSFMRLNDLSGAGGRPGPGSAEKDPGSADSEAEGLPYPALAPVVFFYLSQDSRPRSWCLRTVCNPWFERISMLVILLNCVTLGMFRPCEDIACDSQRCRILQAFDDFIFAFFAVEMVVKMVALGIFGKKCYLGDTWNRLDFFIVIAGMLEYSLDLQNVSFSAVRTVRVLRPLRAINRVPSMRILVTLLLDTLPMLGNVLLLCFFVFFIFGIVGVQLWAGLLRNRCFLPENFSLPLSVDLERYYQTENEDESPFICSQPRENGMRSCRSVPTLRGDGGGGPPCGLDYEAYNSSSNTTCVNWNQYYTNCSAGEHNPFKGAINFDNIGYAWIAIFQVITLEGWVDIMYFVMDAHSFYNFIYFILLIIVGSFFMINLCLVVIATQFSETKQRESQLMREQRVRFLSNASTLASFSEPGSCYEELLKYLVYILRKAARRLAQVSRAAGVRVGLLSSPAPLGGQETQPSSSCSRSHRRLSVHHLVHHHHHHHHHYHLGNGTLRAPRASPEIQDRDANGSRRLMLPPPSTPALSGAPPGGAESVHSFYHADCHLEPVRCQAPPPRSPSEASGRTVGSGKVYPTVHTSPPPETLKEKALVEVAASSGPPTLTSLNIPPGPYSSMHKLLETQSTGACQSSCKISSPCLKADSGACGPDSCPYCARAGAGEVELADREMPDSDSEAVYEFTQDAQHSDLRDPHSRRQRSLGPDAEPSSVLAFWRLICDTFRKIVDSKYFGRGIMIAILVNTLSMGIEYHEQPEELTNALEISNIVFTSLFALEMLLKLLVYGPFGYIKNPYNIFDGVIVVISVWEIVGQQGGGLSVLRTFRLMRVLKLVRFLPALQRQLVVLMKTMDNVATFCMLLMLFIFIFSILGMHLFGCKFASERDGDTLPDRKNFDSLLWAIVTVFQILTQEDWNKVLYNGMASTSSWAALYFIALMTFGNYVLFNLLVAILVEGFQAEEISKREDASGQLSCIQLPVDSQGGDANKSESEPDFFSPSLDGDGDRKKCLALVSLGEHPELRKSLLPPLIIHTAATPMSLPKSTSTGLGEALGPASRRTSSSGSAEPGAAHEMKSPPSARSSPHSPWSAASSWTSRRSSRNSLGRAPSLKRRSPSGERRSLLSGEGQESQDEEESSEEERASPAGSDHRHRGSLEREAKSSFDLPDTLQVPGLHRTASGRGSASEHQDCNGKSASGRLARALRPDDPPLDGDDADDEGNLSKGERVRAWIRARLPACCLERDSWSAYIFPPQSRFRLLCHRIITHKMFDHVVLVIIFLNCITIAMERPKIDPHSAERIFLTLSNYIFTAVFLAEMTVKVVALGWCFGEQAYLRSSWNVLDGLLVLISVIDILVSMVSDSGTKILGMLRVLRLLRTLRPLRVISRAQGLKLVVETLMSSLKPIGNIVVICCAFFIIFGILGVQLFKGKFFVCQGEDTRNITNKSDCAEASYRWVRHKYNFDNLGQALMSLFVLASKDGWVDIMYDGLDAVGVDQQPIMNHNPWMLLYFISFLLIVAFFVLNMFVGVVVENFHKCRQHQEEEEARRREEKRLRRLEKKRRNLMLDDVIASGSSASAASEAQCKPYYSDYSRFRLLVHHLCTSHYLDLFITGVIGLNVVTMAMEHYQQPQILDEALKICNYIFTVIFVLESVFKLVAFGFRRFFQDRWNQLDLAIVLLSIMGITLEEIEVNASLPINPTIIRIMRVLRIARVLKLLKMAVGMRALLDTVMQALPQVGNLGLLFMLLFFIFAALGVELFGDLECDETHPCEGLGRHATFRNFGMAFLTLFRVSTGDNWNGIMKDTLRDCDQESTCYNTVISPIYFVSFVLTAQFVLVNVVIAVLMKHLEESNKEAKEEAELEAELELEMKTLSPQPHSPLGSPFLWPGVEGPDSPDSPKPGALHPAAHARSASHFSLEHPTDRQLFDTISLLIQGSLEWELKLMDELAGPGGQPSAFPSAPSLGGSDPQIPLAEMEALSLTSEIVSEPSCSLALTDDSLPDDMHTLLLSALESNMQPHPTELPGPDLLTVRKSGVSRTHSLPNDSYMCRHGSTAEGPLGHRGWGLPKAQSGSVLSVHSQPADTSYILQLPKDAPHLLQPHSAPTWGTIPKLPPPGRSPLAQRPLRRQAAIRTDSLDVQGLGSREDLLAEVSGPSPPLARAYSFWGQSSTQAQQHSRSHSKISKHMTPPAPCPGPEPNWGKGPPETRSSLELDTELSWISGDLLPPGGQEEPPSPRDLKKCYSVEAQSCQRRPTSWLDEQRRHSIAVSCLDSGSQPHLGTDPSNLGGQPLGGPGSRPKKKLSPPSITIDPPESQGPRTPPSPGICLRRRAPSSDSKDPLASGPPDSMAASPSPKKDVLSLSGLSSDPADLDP
MEASUREMENT_DESCRIPTION: Ion current inhibition on T-type calcium ion channels using a patch clamp (HEK293 cells)
Type: cell-based
COND: patch clamp, HEK293 α1G cells, 10 nM to 100 μM; read-out: IC50
pIC50: −log10 of the molar value.
PROPERTY_LABEL: pIC50

CCOC(=O)C(CCCN1CCN(Cc2ccc(F)cc2)CC1)(c1ccccc1)C(C)C (centres unmarked) [Embodiment 26] = 6.59
COC(=O)C(CCCN(C)CCCc1nc2cc(OC)ccc2[nH]1)(c1ccc(Br)cc1)C(C)C (centres unmarked) [Embodiment 13] = 6.60
COC(=O)C(CCCN1CCN(Cc2cccc(C)c2)CC1)(c1ccc(Br)cc1)C(C)C (centres unmarked) [Embodiment 40] = 6.41

a = COC(=O)C(CCCN(C)CCCc1nc2cc(OC)ccc2[nH]1)(c1ccc(OC)cc1)C(C)C (centres unmarked) [Embodiment 5]
b = COC(=O)C(CCCN1CCN(Cc2ccc(OC)c(OC)c2OC)CC1)(c1ccc(Br)cc1)C(C)C (centres unmarked) [Embodiment 39]
Ask | Min pIC50? a | b // output: label of the selected item
Reply | a
(a: 6.06, b: 6.49)

----------
STUDY_SYSTEM: α1G T-type calcium ion channels (Homo sapiens)
Construct: host or cells: HEK293
MEASUREMENT_DESCRIPTION: Ion current inhibition on T-type calcium ion channels using a patch clamp (HEK293 cells)
Assay type: cell-based
COND: patch clamp, HEK293 α1G cells; unit nM; read-out: IC50 (μM), cells marked
Experimental: Measurement of Ion Current Inhibition on T-Type Calcium Ion Channels Using a Patch Clamp (1) Cell Culture and Preparation […] The current was measured through an EPC10 amplifier (HEKA, Germany) by a precellular patch clamp technique using NPC©-16 Patchliner (Nanion Technologies, Germany). […] When a low polarization was performed at −20 mV for 300 ms, the inward current was measured at ten-second intervals. […]
PROPERTY_LABEL: IC50 (nM)

a = COC(=O)C(CCCN1CCN(c2ccccc2OC)CC1)(c1ccc(Br)cc1)C(C)C (stereo not drawn)
b = COC(=O)C(CCCN(C)CCCc1nc2cc(C)c(C)cc2[nH]1)(c1ccc(Br)cc1)C(C)C (stereo not drawn)
c = COC(=O)C(CCCN(C)CCCc1nc2ccccc2[nH]1)(c1ccc(Br)cc1)C(C)C (stereo not drawn)
Ask | Kindly sort the 3 compounds above from the smallest to the largest IC50. Please list the labels according to the requested order.
Reply | c, b, a
(c: 8.17 nM, b: 53 nM, a: 95 nM)

----------
STUDY_SYSTEM: α1G T-type calcium ion channels (Homo sapiens)
Construct: host or cells: HEK293
MEASUREMENT_DESCRIPTION: Ion current inhibition on T-type calcium ion channels using a patch clamp (HEK293 cells)
Assay type: cell-based
COND: patch clamp, HEK293 α1G cells, 10 nM to 100 μM; read-out: IC50
PROPERTY_LABEL: IC50 (nM)

Field: example entries. Status: answers known.
COC(=O)C(CCCN1CCN(Cc2ccc(OC)cc2)CC1)(c1ccc(Br)cc1)C(C)C (centres unmarked) = 480
COC(=O)C(CCCN1CCN(Cc2cccc(F)c2)CC1)(c1ccc(Br)cc1)C(C)C (centres unmarked) = 980
CCOC(=O)C(CCCN(C)CCCc1nc2ccccc2[nH]1)(c1ccccc1)C(C)C (centres unmarked) = 250

I = CCOC(=O)C(CCCN(C)CCCc1nc2cc(C)c(C)cc2[nH]1)(c1ccccc1)C(C)C (centres unmarked)
II = COC(=O)C(CCCN1CCN(Cc2ccc(F)cc2)CC1)(c1ccc(Br)cc1)C(C)C (centres unmarked)
III = CCOC(=O)C(CCCN1CCN(Cc2ccc(OC)cc2)CC1)(c1ccccc1)C(C)C (centres unmarked)
IV = COC(=O)C(CCCN1CCN(Cc2ccccc2F)CC1)(c1ccc(Br)cc1)C(C)C (centres unmarked)
V = COC(=O)C(CCCN(C)CCCc1nc2ccccc2[nH]1)(c1ccc(OC)cc1)C(C)C (centres unmarked)
Ask | List items by IC50 in falling order. Please list the labels according to the requested order.
Reply | II, IV, III, V, I
